# test_target: T1, EGFR Fc (human, UniProt P00533 25-645)
# T1 construct: also called EGFR-hFc; recombinant human EGFR-Fc
# experimental_protocol: ELISA, EGFR Fc coated, VHH at 2 nM
In this section we review reported OD450 values for a set of binders.

Before answering, review these 3 worked examples.
| binder | OD450 |
| --- | --- |
| pgEG-SX22 (VHH, not shown: small tags and cut ends) VHH: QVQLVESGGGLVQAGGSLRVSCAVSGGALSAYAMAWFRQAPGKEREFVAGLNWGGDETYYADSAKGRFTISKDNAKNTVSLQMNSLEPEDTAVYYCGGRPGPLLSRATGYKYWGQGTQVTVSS | 1.88 |
| pgEG-SX20 (VHH, not shown: small tags and cut ends) VHH: QVQLVESGGGLVQAGGSLRLSCAGARSAFSIKPMTWYRQAPGKERELVAYFNSGGSTNYADSVKGRFTISRDNAKNTMYLQMNNLKPEDTAVYYCNAIPPLGSWGQGTQVTVSS | 2.61 |
| pgEG5 (VHH, not shown: small tags and cut ends) VHH: QVQLVESGGGLVQPGGSLRLSCTASHNIFSDNAMAWSRQAPGAQRELVARIATGGNTYYPDSVKGRFTISRDNAKNTVYLQMNNLTPDDTAVYYCYAERWTGLEYSRTYWGQGTQVTVSS | 2.23 |

Could you now look at the following binder, please?
The recorded OD450 for entry pgEG-SX55 (VHH, not shown: small tags and cut ends) VHH: QVQLVESGGGLVQPGGSLRLSCAGTGLIFTTYVMGWYRQAPGKQRELVAIVTNGGGTHYADFVKGRFTISRDNAKNTVSLQMNLLKPEDTAVYYCNARHLVRPGTNDYWGQGTLVTVSS equals 2.22
